System: HCT116 cells
Experiment summary: Inhibition of proliferation of the human colon tumor line HCT116 ([14C]-thymidine incorporation)
Assay type: cell-based
Run conditions: Homo sapiens, HCT-116, 48 h, 48 hours at 37° C., read-out: Inhibition of HCT116 proliferation IC 50 (μm)
pIC50: −log10 of the molar value.
Readout type: pIC50

compound_structure_string=Cc1cc(C(=O)N2CCN(c3cccc(Cl)c3)CC2)n(-c2ccccc2C)n1 measured_result=7.98
compound_structure_string=O=C(c1cc(CO)nn1-c1ccccc1)N1CCN(c2cccc(Cl)c2)CC1 measured_result=7.93
compound_structure_string=COc1cccc(-n2nc(C)cc2C(=O)N2CCN(c3cc(Cl)ccc3OC)CC2)c1 measured_result=6.62
compound_structure_string=COc1cccc(-n2nc(C)cc2C(=O)N2CCN(c3ccc(C)c(C)c3)CC2)c1 measured_result=6.51
compound_structure_string=COc1cc(OC)cc(N2CCN(C(=O)c3cc(NCc4ccccc4)nn3-c3ccccc3)CC2)c1 measured_result=6.65
compound_structure_string=Cc1cc(C(=O)N2CCN(c3cccc4ccccc34)CC2)n(-c2ccccc2F)n1 measured_result=6.85
compound_structure_string=CCc1ccccc1N1CCN(C(=O)c2cc(C)nn2-c2cccc(Cl)c2)CC1 measured_result=7.44
compound_structure_string=Cc1ccc(-n2nc(C)cc2C(=O)N2CCN(c3cccc(C)c3)CC2)cc1 measured_result=6.57
compound_structure_string=COc1cc(OC)cc(N2CCN(C(=O)c3cc(-c4ccc(C(F)(F)F)cc4)nn3-c3ccccc3)CC2)c1 measured_result=5.96
compound_structure_string=Cc1cc(C(=O)N2CCN(c3cccc(Cl)c3)CC2)n(-c2cccc(Cl)c2)n1 measured_result=6.28

[A] Cc1cccc(N2CCN(C(=O)c3cc(C)nn3-c3ccc(Cl)cc3)CC2)c1
[B] COc1cccc(-n2nc(C)cc2C(=O)N2CCN(c3ccc4c(c3)OCCO4)CC2)c1
[C] Cc1cccc(-n2nc(C)cc2C(=O)N2CCN(c3cccc4ccccc34)CC2)c1
Task field, ranking: reported pIC50, descending order. Returns: the labels listed in the requested order.
A, C, B
(A: 6.53, C: 6.25, B: 5.53)

[I] COc1cccc(N2CCN(C(=O)c3cc(C)nn3-c3cccc(OC)c3)CC2)c1
[II] Cc1nccn1Cc1cc(C(=O)N2CCN(c3cccc(Cl)c3)CC2)n(-c2ccccc2)n1
Which of these two has the smaller recorded pIC50: I or II ? # reply format: chosen label
II

[I] Cc1cc(C(=O)N2CCN(c3cccc(Cl)c3)CC2)n(-c2ccccc2)n1
[II] O=C(c1cccn1-c1ccccc1)N1CCN(c2cccc(Cl)c2)CC1
Which numeric pIC50 is bigger, that of I or that of II ? # reply format: chosen label
I
